Target: T1, MUT-#10 (Q476E) (Caenorhabditis elegans, UniProt Q09487 172-535, Q476E)
T1 sequence: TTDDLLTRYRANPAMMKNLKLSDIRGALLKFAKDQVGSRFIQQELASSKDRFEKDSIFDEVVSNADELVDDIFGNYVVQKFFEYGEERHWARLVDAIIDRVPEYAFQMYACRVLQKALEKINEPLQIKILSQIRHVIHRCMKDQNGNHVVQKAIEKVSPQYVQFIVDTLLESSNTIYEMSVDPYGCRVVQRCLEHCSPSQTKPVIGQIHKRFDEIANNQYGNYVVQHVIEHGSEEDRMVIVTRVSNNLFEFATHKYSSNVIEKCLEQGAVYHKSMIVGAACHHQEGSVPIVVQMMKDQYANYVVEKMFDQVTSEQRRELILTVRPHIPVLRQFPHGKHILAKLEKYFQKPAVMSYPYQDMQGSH
Assay: fluorescence polarization
Parameter Measured: Kd

Q: # input binder: UGUAAAUA (ssRNA) [PBE-5A FAM] ; wanted: its Kd
Result: 519 nM
